Consider the cut-off -0.3. If the recorded log10 vapour pressure (mmHg) is strictly smaller, the label is Yes; if not, the label is No.

>  <COMPOUND>
Cc1cc(C)cc(C)c1

>  <LABEL_VALUE>
No

$$$$
>  <COMPOUND>
CCC(Cl)CCl (configuration not stated)

>  <LABEL_VALUE>
No

$$$$
>  <COMPOUND>
CCCCCCC(C)O (configuration not stated)

>  <LABEL_VALUE>
Yes

$$$$
>  <COMPOUND>
Fc1cc(F)c(F)c(F)c1

>  <LABEL_VALUE>
No

$$$$
>  <COMPOUND>
O=S(=O)(O)C(F)(F)F

>  <LABEL_VALUE>
Yes

$$$$
>  <COMPOUND>
NCCCO

>  <LABEL_VALUE>
Yes

$$$$
>  <COMPOUND>
CCCCCCCCCCCCCCCCCCCl

>  <LABEL_VALUE>
Yes

$$$$
>  <COMPOUND>
NCCCCCCN

>  <LABEL_VALUE>
Yes

$$$$
>  <COMPOUND>
COCC(C)C

>  <LABEL_VALUE>
No

$$$$
>  <COMPOUND>
C1=CC=CC=CC=C1

>  <LABEL_VALUE>
No

$$$$
>  <COMPOUND>
c1ccncc1

>  <LABEL_VALUE>
No

$$$$
>  <COMPOUND>
CCCC(C)C(C)C (configuration not stated)

>  <LABEL_VALUE>
No

$$$$
>  <COMPOUND>
Brc1ccc2c(c1)Oc1cc(Br)ccc1O2

>  <LABEL_VALUE>
Yes

$$$$
>  <COMPOUND>
O=C(Cl)c1ccccc1C(=O)Cl

>  <LABEL_VALUE>
Yes

$$$$
>  <COMPOUND>
CCCC(C)(C)C(C)C

>  <LABEL_VALUE>
No

$$$$
>  <COMPOUND>
O=C(O)COc1nc(Cl)c(Cl)cc1Cl

>  <LABEL_VALUE>
Yes

$$$$
>  <COMPOUND>
C[C@H](O)C(F)(F)F

>  <LABEL_VALUE>
No

$$$$
>  <COMPOUND>
CCCCCON=O

>  <LABEL_VALUE>
No

$$$$
>  <COMPOUND>
C#CC#C

>  <LABEL_VALUE>
No

$$$$
>  <COMPOUND>
C[Si](C)(Cl)Cl

>  <LABEL_VALUE>
No

$$$$
>  <COMPOUND>
CCCCCCC(=O)Cl

>  <LABEL_VALUE>
Yes

$$$$
>  <COMPOUND>
CC(=O)O[C@@H]1C[C@H](C)CC[C@H]1C(C)C (racemic)

>  <LABEL_VALUE>
Yes

$$$$
>  <COMPOUND>
CC(C)CCS

>  <LABEL_VALUE>
No

$$$$
>  <COMPOUND>
CCCI

>  <LABEL_VALUE>
No

$$$$
>  <COMPOUND>
Cc1ccc(N=c2sccn2C)c(C)c1

>  <LABEL_VALUE>
Yes

$$$$
>  <COMPOUND>
FCF

>  <LABEL_VALUE>
No

$$$$
>  <COMPOUND>
Clc1cccc2c1Oc1c(Cl)c(Cl)c(Cl)c(Cl)c1O2

>  <LABEL_VALUE>
Yes

$$$$
>  <COMPOUND>
Cc1ccnc2ccccc12

>  <LABEL_VALUE>
Yes

$$$$
>  <COMPOUND>
O=C(Cl)C(Cl)Cl

>  <LABEL_VALUE>
No

$$$$
>  <COMPOUND>
CN(C)c1ccc(C=O)cc1

>  <LABEL_VALUE>
Yes

$$$$
>  <COMPOUND>
CCCS(=O)(=O)CCC

>  <LABEL_VALUE>
Yes

$$$$
>  <COMPOUND>
C=COCCOCCOC=C

>  <LABEL_VALUE>
Yes

$$$$
>  <COMPOUND>
COC(=O)C(C)Oc1ccc(Oc2ncc(C(F)(F)F)cc2Cl)cc1 (configuration not stated)

>  <LABEL_VALUE>
Yes

$$$$
>  <COMPOUND>
CCNC(=O)NC(=O)/C(C#N)=N/OC

>  <LABEL_VALUE>
Yes

$$$$
>  <COMPOUND>
CC1CCC(C)C(C)C1C (configuration not stated)

>  <LABEL_VALUE>
No

$$$$
>  <COMPOUND>
CCC(C)C1CCCCC1 (configuration not stated)

>  <LABEL_VALUE>
No

$$$$
>  <COMPOUND>
N#Cc1nn(-c2c(Cl)cc(C(F)(F)F)cc2Cl)c(N)c1S(=O)C(F)(F)F (configuration not stated)

>  <LABEL_VALUE>
Yes

$$$$
>  <COMPOUND>
CSc1ccccc1

>  <LABEL_VALUE>
Yes

$$$$
>  <COMPOUND>
N#Cc1c(Cl)cccc1Cl

>  <LABEL_VALUE>
Yes

$$$$
>  <COMPOUND>
O=C1C(Cl)C(CCl)CN1c1cccc(C(F)(F)F)c1 (configuration not stated)

>  <LABEL_VALUE>
Yes

$$$$
>  <COMPOUND>
C=CC(=O)OCCC

>  <LABEL_VALUE>
No

$$$$
>  <COMPOUND>
COCC(=O)N(c1c(C)cccc1C)C(C)C(=O)OC (configuration not stated)

>  <LABEL_VALUE>
Yes

$$$$
>  <COMPOUND>
C=Cc1ccccc1Cl

>  <LABEL_VALUE>
No

$$$$
>  <COMPOUND>
Cc1ccccc1S

>  <LABEL_VALUE>
No

$$$$
>  <COMPOUND>
c1cocn1

>  <LABEL_VALUE>
No

$$$$
>  <COMPOUND>
CCCCCCCCCCCCCCCCCCCCBr

>  <LABEL_VALUE>
Yes

$$$$
>  <COMPOUND>
CCOC(=O)C=Cc1ccccc1

>  <LABEL_VALUE>
Yes

$$$$
>  <COMPOUND>
C=CC(=O)OCCO

>  <LABEL_VALUE>
Yes

$$$$
>  <COMPOUND>
c1ccc2c(c1)cnc1ccccc12

>  <LABEL_VALUE>
Yes

$$$$
>  <COMPOUND>
OC(c1ccccc1)c1ccccc1

>  <LABEL_VALUE>
Yes

$$$$
>  <COMPOUND>
O=C1OCc2ccccc21

>  <LABEL_VALUE>
Yes

$$$$
>  <COMPOUND>
C=COCCCC

>  <LABEL_VALUE>
No

$$$$
>  <COMPOUND>
CC(C)C(C)CC(C)(C)C (configuration not stated)

>  <LABEL_VALUE>
No

$$$$
>  <COMPOUND>
COP(=O)(OC)O/C(C)=C/C(=O)OC(C)c1ccccc1 (configuration not stated)

>  <LABEL_VALUE>
Yes

$$$$
>  <COMPOUND>
CNC(=O)O/N=C/C(C)(C)S(C)=O (configuration not stated)

>  <LABEL_VALUE>
Yes

$$$$
>  <COMPOUND>
CCCCc1ccc(O)cc1

>  <LABEL_VALUE>
Yes

$$$$
>  <COMPOUND>
C1=CCCC=CCC1

>  <LABEL_VALUE>
No

$$$$
>  <COMPOUND>
Cc1cccc2cccnc12

>  <LABEL_VALUE>
Yes

$$$$
>  <COMPOUND>
ClC1(Cl)C2(Cl)C3(Cl)C4(Cl)C(Cl)(Cl)C5(Cl)C3(Cl)C1(Cl)C5(Cl)C24Cl (configuration not stated)

>  <LABEL_VALUE>
Yes

$$$$
>  <COMPOUND>
Cc1cc(C)c2ccccc2n1

>  <LABEL_VALUE>
Yes

$$$$
>  <COMPOUND>
CCCN(CC)CC1COC2(CCC(C(C)(C)C)CC2)O1 (configuration not stated)

>  <LABEL_VALUE>
Yes

$$$$
>  <COMPOUND>
CC(C)CCOCCC(C)C

>  <LABEL_VALUE>
No

$$$$
